Test system: TO-3-N3-2 (biotin conjugate)
Assay name: pull-down binding Z-score (relative to library population); higher = stronger binding
Assay setup: RNA library: Library-2
# pull-down binding Z-score annotations
Returns: the value as a bare number; no unit string appended.

Here is how some sequences turned out for pull-down binding Z-score.
- Record sequence: "CAUCCCGGACGGCCUGUGAGGGAUG [hsa-mir-4787]"
  Reported measurement: 0.0114
- Record sequence: "CACAAUAUUUAGGACAACAAUAUU [hsa-mir-1302-6]"
  Reported measurement: 0.226
- Record sequence: "GCGUCGCUUCUCCCUAAUGUUGCC [hsa-mir-6781]"
  Reported measurement: 0.089

As a next step, examine the sequence that follows.
What is its pull-down binding Z-score for TO-3-N3-2 (biotin conjugate)? Entry: AGAACUUUGGUUUU [hsa-mir-4434] -0.611

====

Test system: TO-N3-2 (biotin conjugate)
Assay name: pull-down binding Z-score (relative to library population); higher = stronger binding
Assay setup: RNA library: Library-2
# pull-down binding Z-score annotations
Returns: the value as a bare number; no unit string appended.

Here is how some sequences turned out for pull-down binding Z-score.
- Record sequence: "GGCGUCUCAAGGCACC [IAV_invivo_NP_5_Motif_2+IAV_invivo_NP_5_Motif_2]"
  pull-down binding Z-score: -0.084
- Record sequence: "GUUGGGAUUGAGUUUUGAACUCGGC [hsa-mir-196a-2]"
  pull-down binding Z-score: -0.0161
- Record sequence: "GCGCUUCAGCGUUCUUCGGAAUGUCGCGC"
  pull-down binding Z-score: -0.654
- Record sequence: "GAUGCUGUUGUGUGUUUCAAUAGCACUUAUGCAUC"
  pull-down binding Z-score: -0.931
- Record sequence: "UCAAAAAGAAAUUGA [SHAPE_invivo_SARS-CoV-2_Motif_472]"
  pull-down binding Z-score: -0.626
- Record sequence: "UGCGAGAAAUGCUUGCA [SHAPE_invitro_SARS-CoV-2_Motif_85]"
  pull-down binding Z-score: -0.155

Give its pull-down binding Z-score value. Item: GAGACGGUCGGGUCCAGAUAUUCGUAUCUGUCGAGUAGAGUGUGGGCUCC [Broccoli] 1.99

Give its pull-down binding Z-score value. Item: UGUUGGCAGCCCAAGAUGACA [hsa-mir-4686] 0.58

Give its pull-down binding Z-score value. Item: GUUGGAUGGUCUAAUUGUGAAGCUCCUAAC [hsa-mir-141] -0.0552

Give its pull-down binding Z-score value. Item: CAAUCAUGUAUAAUUAAAUUUGAUUG [hsa-mir-514a-1] -1.18

Give its pull-down binding Z-score value. Item: UUCUGUUGUCUGAAAGAAAAGAA [hsa-mir-1283-2] -0.382

Give its pull-down binding Z-score value. Item: `GGUUUAACUUCUAUUAAAUGGGCAGAUAACAACUGUUAUCUUGCCACUGCAUUGUUAACACUCCAACAAAUAGAGUUGAAGUUUAAUCC` -0.63

Give its pull-down binding Z-score value. Item: `GUACAUACAGCUAAUAAAUGGGAUCUCAUUAUUAGUGAUAUGUAC` 0.426

Give its pull-down binding Z-score value. Item: GCGGCUGUUAAUGAUUUUAACAGUUGC [hsa-mir-449c] -1.2

Give its pull-down binding Z-score value. Item: UUUGCCGUUAAAAGUAAUGGCA [hsa-mir-548a-2] -0.106

Give its pull-down binding Z-score value. Item: AAGCUGUGUGUGUCCAGC [hsa-mir-4732] 0.52

Give its pull-down binding Z-score value. Item: GUCUUGAUCCCCCACCCCAAGAC [hsa-mir-642b] 0.091

====

Tested on: TO-N3-2 (biotin conjugate)
Assay name: pull-down binding Z-score (relative to library population); higher = stronger binding
Assay setup: RNA library: Library-2
Quick rule for you: pull-down binding Z-score at -0.1 or higher means 1 (yes), lower means 0 (no).

Worked examples, 3 sequences total:
- Record sequence: "UUGUGAUGUUUACCGUUUAAAUCCACGG [hsa-mir-125b-1]"
  Class assignment: "1 (yes)"
- Record sequence: "CACGGUGUCUGCGGGAGGAGACCAUG [hsa-mir-4757]"
  Class assignment: "1 (yes)"
- Record sequence: "GGCGAAUCUGGCGCC [IAV_invivo_NP_5_Motif_7+IAV_invivo_NP_5_Motif_7]"
  Class assignment: "1 (yes)"

For this sequence, is measured pull-down binding Z-score -0.1 or higher? `UCAGCUGGUUUUCCAUUUAAUAAAUGGGGUAAGGCUAGA` 0 (no)

For this sequence, is measured pull-down binding Z-score -0.1 or higher? GAACUUUUACGGUGAACCAGGAGGUUC [hsa-mir-629] 1 (yes)

For this sequence, is measured pull-down binding Z-score -0.1 or higher? GGGGUGGCUGCGGGCCUUCUGAAGGUCUCCC [hsa-mir-662] 1 (yes)

For this sequence, is measured pull-down binding Z-score -0.1 or higher? UGGAUCACGCCGACAACACUGGUCU [hsa-mir-4635] 1 (yes)

For this sequence, is measured pull-down binding Z-score -0.1 or higher? `UCCAAGAACUUGGA` 0 (no)

For this sequence, is measured pull-down binding Z-score -0.1 or higher? ACCAAAACACUCAUCGCGG [hsa-mir-1260a] 1 (yes)

For this sequence, is measured pull-down binding Z-score -0.1 or higher? CCUAUCAAUGG [IAV_invivo_PB2_1_Motif_26+IAV_invivo_PB2_1_Motif_26] 0 (no)

For this sequence, is measured pull-down binding Z-score -0.1 or higher? CUACUAGUUUGUAGUAGUUCGUAGCAG [hsa-mir-3919] 1 (yes)

For this sequence, is measured pull-down binding Z-score -0.1 or higher? UCAUAAAUAUUUUAAGGAAUGACCCGGCCCUGGGG [hsa-mir-4285] 1 (yes)

For this sequence, is measured pull-down binding Z-score -0.1 or higher? CUGAUCCUAGUUUUCUGGGUAG [SHAPE_invivo_SARS-CoV-2_Motif_108] 0 (no)

====

System: TO-N3 (biotin conjugate)
Assay name: pull-down binding Z-score (relative to library population); higher = stronger binding
Assay setup: RNA library: Library-2
Quantity name: pull-down binding Z-score
Returns: the value as a bare number; no unit string appended.

- Record sequence: "CAAUCACAUGUAAUUAGGUGUGAUUG [hsa-mir-510]"
  Assay target: "TO-N3 (biotin conjugate)"
  Quantity name: "pull-down binding Z-score"
  Reported measurement: -1.09

Give its pull-down binding Z-score value. Item: AAGGGGGCCGUGGGGUGGGAGCUGGGGAA [G4_2A2_BCL2] 6.6

Give its pull-down binding Z-score value. Item: GGGAGCGGCCCUCACAUUGAUGGCUCCU [hsa-mir-6727] 0.313

====

# pull-down binding Z-score annotations
System: TO-3-N3-2 (biotin conjugate)
Assay name: pull-down binding Z-score (relative to library population); higher = stronger binding
Assay setup: RNA library: Library-2
Returns: the value as a bare number; no unit string appended.

Here is how some sequences turned out for pull-down binding Z-score.
- Record sequence: "CACCAGCCAGGCAUUGCUCAGCCCGUUUCCCUCUGGGGGAGCAAGGAGUGGUGCUGGGUUUGUC [hsa-mir-593]"
  Quantity name: "pull-down binding Z-score"
  Reported measurement: -0.0489
- Record sequence: "CGCGGGCGGGUCCCAGGCUGGGCCCCUCGGAGGCCGGGUGCUCACUGCCCCGUCCCGG [hsa-mir-6789]"
  Quantity name: "pull-down binding Z-score"
  Reported measurement: -0.0304
- Record sequence: "AGGCAUGGGUGGCU [hsa-mir-8085]"
  Quantity name: "pull-down binding Z-score"
  Reported measurement: 0.062
- Record sequence: "UGCCUACUACUGAUGACAUACAAUGUAAGUGCUCAUUUAGGCG [hsa-mir-5696]"
  Quantity name: "pull-down binding Z-score"
  Reported measurement: -0.289

As a next step, examine the sequence that follows.
What is its pull-down binding Z-score for TO-3-N3-2 (biotin conjugate)? Entry: UUUCUAUAACUGGAUGAAA [hsa-mir-498] -0.431

====

Tested on: TO-3-N3-2 (biotin conjugate)
Assay name: pull-down binding Z-score (relative to library population); higher = stronger binding
Assay setup: RNA library: Library-2
# pull-down binding Z-score annotations
Returns: the value as a bare number; no unit string appended.

Here is how some sequences turned out for pull-down binding Z-score.
- Record sequence: "GCACCUGUUUGUGAC [hsa-mir-4718]"
  Quantity name: "pull-down binding Z-score"
  Reported measurement: -0.276
- Record sequence: "CAAUUUGAGACCAAU [hsa-mir-1285-2]"
  Quantity name: "pull-down binding Z-score"
  Reported measurement: 0.444
- Record sequence: "GCCACAUGAGCUGGGCCUCGUGGGC [hsa-mir-770]"
  Quantity name: "pull-down binding Z-score"
  Reported measurement: -0.342

As a next step, examine the sequence that follows.
Give its pull-down binding Z-score value. Item: `GACAGUGGUUGCCUACGGGUACGCUGCUUGUC` -0.021
